For each entry below, report its pIC50 value.
tested on: NCI-H460; test: Cytotoxicity against human H460 cells after 72 hrs by MTT assay; assay type: cell-based; conditions: NCI-H460, 72 h
Numbers only, as −log10 of the molar value.

COc1cccc(-n2nnc(-c3ccccc3NC(=O)c3ccc(N=[N+]=[N-])cc3)n2)c1    4.69

Attention now turns to another entry.
The value of pIC50 recorded for `COc1cccc(-n2nnc(-c3ccccc3NC(=O)c3cccc([N+](=O)[O-])c3)n2)c1` when tested on NCI-H460 reads 4.70

====

assay: Inhibition of ABCG2 in human H460/MX20 cells assessed as potentiation of mitoxantrone induced antiproliferative activity by measuring mitoxantrone IC50 at 10 uM preincubated for 2 hrs followed by mitoxantrone addition measured after 72 hrs by MTT assay (reference value: 6.161 +/- 0.172 microM)
For each entry below, report its IC50 value.
One number for each entry, in nM.

COc1ccc(NC(=O)Nc2ccccc2-c2nnn(-c3ccc(OC)cc3)n2)cc1    355
COc1cccc(-n2nnc(-c3ccccc3NC(=O)c3ccc([N+](=O)[O-])cc3)n2)c1    307
CCCc1ccc(NC(=O)c2ccccc2NC(=O)c2cccc([N+](=O)[O-])c2)cc1    512
CCCc1ccc(NC(=O)c2ccccc2NC(=O)Nc2ccc([N+](=O)[O-])cc2)cc1    325

Sample `CCCc1ccc(NC(=O)c2ccccc2NC(=O)Nc2cccc([N+](=O)[O-])c2)cc1` ; IC50 observed: 348

====

Target: UniProt Q9UNQ0
Sequence (Q9UNQ0 whole entry): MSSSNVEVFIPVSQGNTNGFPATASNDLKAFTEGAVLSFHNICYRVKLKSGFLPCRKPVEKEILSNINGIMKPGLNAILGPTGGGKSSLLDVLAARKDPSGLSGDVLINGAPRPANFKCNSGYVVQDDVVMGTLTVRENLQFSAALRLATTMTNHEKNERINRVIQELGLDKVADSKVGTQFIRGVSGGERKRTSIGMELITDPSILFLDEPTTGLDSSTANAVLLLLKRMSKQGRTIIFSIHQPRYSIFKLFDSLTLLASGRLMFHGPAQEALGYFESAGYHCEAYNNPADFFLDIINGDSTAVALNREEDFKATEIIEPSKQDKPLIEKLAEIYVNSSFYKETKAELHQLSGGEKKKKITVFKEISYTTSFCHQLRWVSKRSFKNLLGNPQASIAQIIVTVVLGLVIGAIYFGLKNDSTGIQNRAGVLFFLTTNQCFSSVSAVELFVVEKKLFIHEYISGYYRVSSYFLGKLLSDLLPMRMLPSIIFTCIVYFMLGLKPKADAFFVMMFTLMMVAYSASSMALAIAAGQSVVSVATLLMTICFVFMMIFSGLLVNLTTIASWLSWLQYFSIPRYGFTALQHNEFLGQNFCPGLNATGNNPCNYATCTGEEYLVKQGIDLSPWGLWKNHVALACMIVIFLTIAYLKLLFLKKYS
Assay: Inhibition of BCRP (unknown origin) expressed in MCF-7 MX cells assessed as reduction in Hoechst 33342 accumulation preincubated for 30 mins followed by Hoechst 33342 addition measured every 60 secs up to 120 mins by fluorescence assay
READOUT_NAME: pIC50
One number for each entry, as −log10 of the molar value.

Sample `CCCc1ccc(NC(=O)c2ccccc2NC(=O)c2ccc([N+](=O)[O-])cc2)cc1` ; pIC50 observed: 6.03
